Listing: protein stability index of selected sequences
- ASSAY_DETAILS: protein stability index of a GFP-peptide fusion (yeast GPS) (PSI 1-4); higher = more stable; sorted into four equal gates, so the index is relative within each strain
- RECORDED_CONDITIONS: doa10∆
I'd appreciate a reply containing only the number, no unit.

Worked set:
KKRIRLPSEERIQKIIS [YIL149C/MLP2]; 2.66
KESDDPSIPLVIIRRLK [POP1]; 3.12

Data request, read-out protein stability index, for FDRLNGNDTISKFYNMK [SSN2]
3.17

Data request, read-out protein stability index, for RTQAGDIVSIDIEEPQL [MTW1]
2.99

Data request, read-out protein stability index, for SRKQKIAKTFTVDVSSP [RPL22A]
2.81

Data request, read-out protein stability index, for KLLKSLLLNYLELIGVL [MED7]
1.86

Data request, read-out protein stability index, for KTSLSIKVENLNDTTEK [SMC2]
2.87
